- systemName: human recombinant HDAC1 (Homo sapiens)
- Construct: purchased Enzo Life Science BML-SE456
- Sequence (Q13547 whole entry): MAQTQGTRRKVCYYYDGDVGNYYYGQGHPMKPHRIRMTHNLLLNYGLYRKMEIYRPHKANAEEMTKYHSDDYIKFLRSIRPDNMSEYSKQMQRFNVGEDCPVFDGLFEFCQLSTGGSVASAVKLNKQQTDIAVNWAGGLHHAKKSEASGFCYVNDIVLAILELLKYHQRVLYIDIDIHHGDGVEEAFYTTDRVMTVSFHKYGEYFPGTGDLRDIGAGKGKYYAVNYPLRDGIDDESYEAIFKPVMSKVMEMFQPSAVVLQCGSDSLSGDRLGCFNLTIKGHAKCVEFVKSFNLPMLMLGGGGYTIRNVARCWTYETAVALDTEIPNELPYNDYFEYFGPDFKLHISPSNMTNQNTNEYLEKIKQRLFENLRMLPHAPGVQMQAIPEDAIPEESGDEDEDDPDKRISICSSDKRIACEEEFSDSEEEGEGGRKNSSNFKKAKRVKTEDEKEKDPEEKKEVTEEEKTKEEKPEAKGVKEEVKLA
- assayDetails: HDAC1 enzyme activity inhibition assay (in vitro, fluorimetric)
- Assay type: biochemical
- recordedConditions: human recombinant HDAC1, fluorimetric kit, 30° C. 60 minutes
pIC50: −log10 of the molar value.
observable: pIC50

See these solved cases before continuing.
>  <inputSmiles>
CC(C)CCN1[C@H](C)CN(Cc2ccc(C(=O)NO)cc2)C[C@@H]1C

>  <observable>
pIC50

>  <testValue>
< 5.00

$$$$
>  <inputSmiles>
C[C@@H]1CN(Cc2ccc(C(=O)NO)cc2)C[C@H](C)N1CC(F)(F)F

>  <observable>
pIC50

>  <testValue>
< 5.00

$$$$

# evaluate next
Using the record for "C[C@@H]1CN(Cc2ccc(C(=O)NO)cc2)C[C@H](C)N1Cc1cccc(OCC2CCN(CC(C)(C)F)CC2)c1" , report its pIC50. < 5.00
